- measured_on: SARS-CoV-2 Spike RBD, original (Wuhan) strain (SARS-CoV-2, original Wuhan strain, UniProt P0DTC2)
- assay_remarks: SPR
recorded_endpoint: pKD

>>> meas_value("Inverse folding design from the LY-CoV1404 starting point (Table 5, design row 1, the 5th table, row 12) (antibody, V domains shown) VH: QITLKESGPTLVKPTQTLTLTCTFSGFSLSTSGVGVGWLRQPPGKALEWLALIYWDDDKRYSPSLKSRLTISKDTSKNQVVLKMTNIDPVDTATYYCAHHSISTIFDHWGQGTLVTVSS VL: QSALTQPASVSGSPGQSITISCTATSSDVGNYNYVSWYQQHPGKAPKLMIFEVSDRPSGISNRFSGSKSGNTASLTISGLQAEDEADYYCSSYTSSSVVFGGGTKLTVL")
"9.57 -log10(KD)"
>>> meas_value("Inverse folding design from the LY-CoV1404 starting point (Table 5, design row 2, the 5th table, row 13) (antibody, V domains shown) VH: QITLKESGPTLVKPTQTLTLTCTFSGFSLSISGVGVGWLRQPPGKALEWLALIYWDDDKRYSPSLKSRLTISKDTSKNQVVLKMTNIDPVDTATYYCAHHSISTIFDHWGQGTLVTVSS VL: QSALTQPASVSGSPGQSITISCTATSSDVGIYNYVSWYQQHPGKAPKLMIFEVSDRPSGISNRFSGSKSGNTASLTISGLQAEDEADYYCSSYTTSAAVFGGGTKLTVL")
"9.48 -log10(KD)"
>>> meas_value("Inverse folding design from the DXP-604 starting point (Table 5, design row 7, the 5th table, row 10) (antibody, V domains shown) VH: EVQLVESGGGLIQPGGSLRLSCAASGIIVSRNYMTWVRQAPGKGLEWVSVIYSGGSTFYADSVKGRFTISRDNSKNTLYLQMSSLRAEDTAVYYCARDLGPYGMDVWGQGTTVTVSS VL: DIQLTQSPSFLSASVGDRVTITCRASQGISSDLAWYQQKPGKAPNLLIYAASTLQSGVPSRFSGSGSGTEFTLTISSLQPEDFATYYCQQLNSDLYTFGQGTKLEIK")
"10.6 -log10(KD)"
>>> meas_value("Inverse folding design from the DXP-604 starting point (Table 5, design row 4, the 5th table, row 7) (antibody, V domains shown) VH: EVQLVESGGGLIQPGGSLRLSCAASGIIVSRNYMTWVRQAPGKGLEWVSVIYSGGTTFYADSVKGRFTISRDNSKNTLYLQMSSLRAEDTAVYYCARDLGPYGMDVWGQGTTVTVSS VL: DIQLTQSPSFLSASVGDRVTITCRASQGIGSDLAWYQQKPGKAPNLLIYAASTLQSGVPSRFSGSGSGTEFTLTISSLQPEDFATYYCQQLNSDLYTFGQGTKLEIK")
"9.53 -log10(KD)"
